System: cancer cell lines classified IM, MSL, M
Test protocol: PRISM screen compound sensitivity correlated with IM, MSL and M subtype of cell lines (101 gene signature)
Format: cell-based
Particulars: correlation of PRISM compound sensitivity with M subtype correlation; test cell set (188 cell lines)
Square brackets hold non-standard residues; d marks the D form. Peptide text beside a SMILES is read from it.
Assignment: determine reported M Corr test for the given compounds.
Numbers only.

Solved entries (count: 4):
Compound	M Corr test
C#Cc1cccc2c1c(C(=O)c1ccc(Cn3c(C)nc4cnccc43)c(F)c1)cn2C(=O)N(C)C [ABT-491]	0.04621
C[C@@H](N)c1ccc(C(=O)Nc2ccnc3[nH]ccc23)cc1 [Y-39983]	−0.1022
Cc1ccc(Sc2cncc3sc(C(N)=O)cc23)cc1 [A205804]	0.1655
Cc1ncc(-c2ccnc(Nc3ccc(S(C)(=O)=O)cc3)n2)n1C(C)C [AZD5438]	0.0844

Here are 2 compounds. What values of M Corr test were reported for them?
1. O=C(O)CCCN1C(=O)c2cccc3cccc(c23)C1=O [isodibut]
2. CC(C)C[C@@H]1NC(=O)[C@@H](C(C)C)NC(=O)[C@@H]2CCCN2C(=O)[C@@H](CC(=O)O)NC(=O)[C@@H](Cc2c[nH]c3ccccc23)NC1=O [BQ-123] (cyclo(L[dW][dD]P[dV]))

1. −0.03436
2. −0.1374
